This collection of values is drawn from ChEMBL document CHEMBL1132620.

test.target: GABA A receptor alpha-3/beta-2/gamma-2 (Homo sapiens) (UniProt P47870+P18507+P34903)
protocol.summary: In vitro GABA-mediated chloride current in A293 cells expressing GABA-A benzodiazepine receptor alpha-3-beta-2-gamma-2 subunits at 5 uM
Format: functional, cell-based
condition.set: HEK293
experimental.endpoint: Change in Cl- current

molecule=C[C@@H]1CN(C(=O)N2c3cc(Cl)ccc3-n3cnc(C(=O)OC(C)(C)C)c3C2(C)C)C[C@H](C)N1C experimental_endpoint="Change in Cl- current" meas_value=0.68
molecule=CN1CCN(C(=O)N2Cc3c(C(=O)OC(C)(C)C)ncn3-c3ccc(Cl)cc32)CC1 experimental_endpoint="Change in Cl- current" meas_value=0.44
molecule=CCCC(=O)O.C[C@@H]1CN(C(=O)N2Cc3c(C(=O)OC(C)(C)C)ncn3-c3ccc(Cl)cc32)C[C@H](C)N1 experimental_endpoint="Change in Cl- current" meas_value=0.54
molecule=C[C@@H]1CN(C(=O)N2c3cc(Cl)ccc3-n3cnc(C(=O)OC(C)(C)C)c3C2(C)C)C[C@H](C)N1 experimental_endpoint="Change in Cl- current" meas_value=1.08
molecule=C[C@@H]1CN(C(=O)N2Cc3c(C(=O)OC(C)(C)C)ncn3-c3ccc(Cl)cc32)C[C@H](C)N1C experimental_endpoint="Change in Cl- current" meas_value=1
molecule=Cc1ccc2c(c1)N(C(=O)N1C[C@@H](C)N[C@@H](C)C1)Cc1c(C(=O)OC(C)(C)C)ncn1-2 experimental_endpoint="Change in Cl- current" meas_value=0.1
molecule="CC1CN(C)CC(C)N1C(=O)N1Cc2c(C(=O)OC(C)(C)C)ncn2-c2ccc(Cl)cc21 (centres undefined)" experimental_endpoint="Change in Cl- current" meas_value=0.69
molecule=Cc1ccc2c(c1)N(C(=O)N1C[C@@H](C)N(C)[C@@H](C)C1)Cc1c(C(=O)OC(C)(C)C)ncn1-2 experimental_endpoint="Change in Cl- current" meas_value=0.56
molecule=C[C@@H]1CN(C(=O)N2Cc3c(C(=O)OC(C)(C)C)ncn3-c3ccc(C(F)(F)F)cc32)C[C@H](C)N1 experimental_endpoint="Change in Cl- current" meas_value=0.1
